# System: DMS 114 small cell lung
# assay-info: NCI tumour cell line growth inhibition, 48 h

{"molecule": "COc1cc(C(C)c2cc3c(cc2OCCN)OCO3)cc(OC)c1OC (centres undefined)", "TGI": "> 100 µM"}
{"molecule": "O=c1c2ccccc2nc(-c2ccccc2Cl)n1NCC1(O)OCC(O)C(O)C1O (centres undefined)", "TGI": "> 100 µM"}
{"molecule": "COc1cc(-c2ccc(N=Nc3c(S(=O)(=O)O)cc4cc(S(=O)(=O)O)cc(N)c4c3O)c(OC)c2)ccc1N=Nc1c(S(=O)(=O)O)cc2cc(S(=O)(=O)O)cc(N)c2c1O", "TGI": "> 100 µM"}
{"molecule": "Cc1ccc(N=Nc2c(-c3ccccc3)nn(C(=O)CC(=O)Nc3ccc(Cl)cc3)c2-c2ccccc2)cc1", "TGI": "> 100 µM"}
{"molecule": "C[C@]12CC[C@H](O)CC1=CC[C@@H]1C2CC[C@]2(C)NC(=O)C(C#N)CC12 (some centres undefined)", "TGI": "> 100 µM"}
{"molecule": "CC1=CP(=O)(OC(C)C)CC(C)=C1Cl (centres undefined)", "TGI": "> 100 µM"}
{"molecule": "CCC[CH2][Sn]1([CH2]CCC)[O]CC(c2ccccn2)C[O]1", "TGI": "26.7 µM"}
{"molecule": "Brc1ccc2c(C3CN[C@@H](c4c[nH]c5cc(Br)ccc45)CN3)c[nH]c2c1 (some centres undefined)", "TGI": "5.14 µM"}
{"molecule": "Cn1cnc2[nH]c(=O)[nH]c(=S)c21", "TGI": "> 100 µM"}
{"molecule": "O=C1OC(c2cccc(C(F)(F)F)c2)(c2cccc(C(F)(F)F)c2)c2ccc3ccccc3c21", "TGI": "> 100 µM"}
{"molecule": "CNS(=O)(=O)NN(C)S(=O)(=O)c1ccc(OC)cc1", "TGI": "> 100 µM"}
{"molecule": "O=C1C=C(Nc2ccccc2C(=O)c2ccccc2)c2ccccc2C1=O", "TGI": "> 100 µM"}
{"molecule": "C[C@]12CCC3[C@@H](CC[C@@H]4c5nonc5CC[C@]34C)C1CCC2=O (some centres undefined)", "TGI": "53.9 µM"}
{"molecule": "CC(C)CC(N=Cc1nc(-c2ccccc2)oc1O)C(=O)O (centres undefined)", "TGI": "> 100 µM"}

====

# System: BT-549 breast
Possible outcomes: 1.0 for active, 0.0 for inactive

{"smiles-repr": "COc1ccc(/C=C/C(=O)c2ccc(NC(=O)CSc3nnc(-c4ccc(OC)c(OC)c4)n3-c3ccccc3)cc2)cc1", "study-target": "BT-549 breast", "label-class": 0.0}
{"smiles-repr": "CC(=O)O[C@H]1C(=O)[C@@]2(C)[C@H]([C@H](OC(=O)c3ccccc3)[C@]3(O)C[C@H](OC(=O)[C@H](OC(=O)OC[C@@H]4COC(C)(C)O4)[C@@H](NC(=O)c4ccccc4)c4ccccc4)C(C)=C1C3(C)C)[C@]1(OC(C)=O)CO[C@@H]1C[C@@H]2O", "study-target": "BT-549 breast", "label-class": 1.0}
{"smiles-repr": "Clc1ccc(-c2ccc(CNCC3CCNCC3)o2)c(-c2ccccc2)c1", "study-target": "BT-549 breast", "label-class": 0.0}
{"smiles-repr": "Cc1ccc2cc3c(N)c4c(C)ccc(C)c4nc3nc2c1", "study-target": "BT-549 breast", "label-class": 0.0}

====

Entries with reported GI50 on NCI-H226 lung
measure-name: GI50

{"molecule": "CC/C(=C(\\c1ccc(Cl)cc1)c1ccc(OCCN2CCCCC2)cc1)c1ccc(O)cc1", "value-observed": "1.85 µM"}
{"molecule": "Cc1ccc2c(c1)c(C1=C(c3cn(C)c4ccccc34)C(=O)NC1=O)cn2C", "value-observed": "3.57 µM"}
{"molecule": "C=C1C(=O)c2sccc2C(c2ccc(OC)c(OC)c2)C1COC(C)=O (stereo not drawn)", "value-observed": "2.93 µM"}
{"molecule": "O=c1c(Br)c(-c2ccccc2)[nH]c2ccccc12", "value-observed": "37.1 µM"}
{"molecule": "CC#CC#Cc1cccc(=O)o1", "value-observed": "21 µM"}
{"molecule": "COc1cccc2c(Nc3ccc(C(=O)O)cc3)cc(-c3ccccc3)nc12", "value-observed": "> 100 µM"}
{"molecule": "CC[C@H](Nc1cc(C)nc(N)n1)c1nc2cccc(NCc3ccc(C(=O)NO)cc3)c2c(=O)n1-c1ccccc1", "value-observed": "2.86 µM"}
{"molecule": "CC(=O)O[C@H]1C(=O)[C@@]2(C)[C@H]([C@H](OC(=O)c3ccccc3)[C@]3(O)C[C@H](OC(=O)[C@H](OC(=O)OC[C@@H]4COC(C)(C)O4)[C@@H](NC(=O)c4ccccc4)c4ccccc4)C(C)=C1C3(C)C)[C@]1(OC(C)=O)CO[C@@H]1C[C@@H]2O", "value-observed": "0.506 µM"}

====

Here the recorded TGI is given for each entry.
# System: OVCAR-8 ovarian
# assay-info: NCI tumour cell line growth inhibition, 48 h
measure-name: TGI (µM)

{"compound": "COc1cc2c3c(c1O)N=NC=3CCN=2", "measure-name": "TGI", "censoring-operator": "=", "value-observed": 30.9}
{"compound": "CN(C)CCCNc1c2c(nc3ccc(Cl)cc13)CCCC2", "measure-name": "TGI", "censoring-operator": "=", "value-observed": 32.9}
{"compound": "O=C(/C=C/c1cccc(O)c1)c1cccc(-n2cc(-c3ccc(Cl)cc3)[nH]c2=O)c1", "measure-name": "TGI", "censoring-operator": ">", "value-observed": 100}
{"compound": "CCC[CH2][Sn]1([CH2]CCC)[O]CC(c2ccccn2)C[O]1", "measure-name": "TGI", "censoring-operator": "=", "value-observed": 36.8}
{"compound": "Brc1ccc2c(C3CN[C@@H](c4c[nH]c5cc(Br)ccc45)CN3)c[nH]c2c1 (some centres undefined)", "measure-name": "TGI", "censoring-operator": "=", "value-observed": 15.9}
{"compound": "Cc1cc(C)nc(NS(=O)(=O)c2ccc(NNc3c4ccccc4nc4c(C(=O)Nc5ccc(S(=O)(=O)N=C(N)N)cc5)cccc34)cc2)n1", "measure-name": "TGI", "censoring-operator": ">", "value-observed": 100}
{"compound": "O=C(C=P(c1ccccc1)(c1ccccc1)c1ccccc1)CC(=S)CC(=O)C=P(c1ccccc1)(c1ccccc1)c1ccccc1", "measure-name": "TGI", "censoring-operator": "=", "value-observed": 22.9}
{"compound": "COC(=O)/C(=C(\\C)NC(C)=O)c1c(C(=O)OC)[nH]c2ccccc12", "measure-name": "TGI", "censoring-operator": ">", "value-observed": 100}
{"compound": "O=c1c2ccccc2nc(-c2ccccc2Cl)n1NCC1(O)OCC(O)C(O)C1O (centres undefined)", "measure-name": "TGI", "censoring-operator": ">", "value-observed": 100}

====

# System: MCF7 breast
# assay-info: NCI tumour cell line growth inhibition, 48 h; in the data active = GI50 below about 0.43 µM; inactive = the rest
Possible outcomes: class 1 = active, class 0 = inactive

{"compound": "C=CCSSC1N=CNc2nc[nH]c21 (stereo not drawn)", "study-target": "MCF7 breast", "label-class": "class 0"}
{"compound": "CCOC(=O)c1ccc2c(c1)c1c(C)c3cnccc3c(C)c1n2C", "study-target": "MCF7 breast", "label-class": "class 1"}
{"compound": "CCCOC(=O)c1ccc2c(c1)[N+](=O)C(C(=O)c1ccccc1)=C(C(F)(F)F)[N+]2=O", "study-target": "MCF7 breast", "label-class": "class 0"}
{"compound": "Cc1cc2nc3c4cc(C=O)ccc4n(CCN(C)C)c3nc2cc1C", "study-target": "MCF7 breast", "label-class": "class 0"}
{"compound": "Cc1ccc(-c2c3c(nn2-c2ccc(S(=O)(=O)NC(=O)Nc4ccccc4)cc2)-c2ccccc2C3)cc1", "study-target": "MCF7 breast", "label-class": "class 0"}
{"compound": "CC(=O)O[C@H]1C(=O)[C@@]2(C)[C@H]([C@H](OC(=O)c3ccccc3)[C@]3(O)C[C@H](OC(=O)[C@H](OC(=O)OC[C@@H]4COC(C)(C)O4)[C@@H](NC(=O)c4ccccc4)c4ccccc4)C(C)=C1C3(C)C)[C@]1(OC(C)=O)CO[C@@H]1C[C@@H]2O", "study-target": "MCF7 breast", "label-class": "class 1"}
{"compound": "Clc1ccc(-c2ccc(CNCC3CCNCC3)o2)c(-c2ccccc2)c1", "study-target": "MCF7 breast", "label-class": "class 0"}
{"compound": "O=C1C=CC(=O)C(c2cc(-c3ccc(Cl)cc3)nn2-c2ccccc2)=C1", "study-target": "MCF7 breast", "label-class": "class 0"}
{"compound": "C[C@]12CC[C@@H]3c4ccc(O)cc4CC[C@H]3[C@@H]1CC[C@@H]2NS(=O)(=O)c1cccc(OC(F)(F)F)c1", "study-target": "MCF7 breast", "label-class": "class 0"}
{"compound": "Cc1ccc2cc3c(N)c4c(C)ccc(C)c4nc3nc2c1", "study-target": "MCF7 breast", "label-class": "class 0"}
{"compound": "C=C1C(=O)c2sccc2C(c2ccc(OC)c(OC)c2)C1COC(C)=O (stereo not drawn)", "study-target": "MCF7 breast", "label-class": "class 0"}
{"compound": "COC(=O)C(=Cc1ccccc1[N+](=O)[O-])C(=O)OC", "study-target": "MCF7 breast", "label-class": "class 0"}
{"compound": "O=C1C=C(Nc2ccc([N+](=O)[O-])cc2)c2ccccc2C1=O", "study-target": "MCF7 breast", "label-class": "class 0"}
